- Test system: redroot pigweed (Amaranthus retroflexus, AMARE)
- ASSAY DETAILS: Pre-emerge test, greenhouse herbicide activity screening
- Assay type: in vivo
- STUDY CONDITIONS: pre-emerge, 250 g ai/ha, 14 days after application, scale 0-100

# MOLECULE, phytotoxicity rating AMARE
rows = [
    ("CCOC(=O)C(C)Oc1ccc(-n2c(=O)cc(C(F)(F)F)n(C)c2=O)c(NC(=O)c2ccc3ccccc3c2)c1 (stereo not shown) [2-146]", 80),
    ("COc1c(C#N)cc(F)c(-n2c(=O)cc(C(F)(F)F)n(C)c2=O)c1NC(=O)C=Cc1ccccc1 [2-179]", 100),
    ("COc1c(Br)cc(F)c(-n2c(=O)cc(C(F)(F)F)n(C)c2=O)c1NC(=O)C=Cc1ccccc1 [2-175]", 100),
    ("COc1c(Cl)cc(F)c(-n2c(=O)cc(C(F)(F)F)n(C)c2=O)c1NC(=O)C=Cc1cccc(Cl)c1 [2-134]", 100),
]
